Reference source: the supplement of paper PMC10724198

Test system: Saccharomyces cerevisiae
PROCEDURE TEXT: protein stability index of tFT-peptide fusion (C-terminal peptide) (PSI (0-1 scale)); higher = more stable (slower turnover)
MEASUREMENT CONDITIONS: genetic background: das1 deletion; temperature: 30 C
MEASURED ENDPOINT: protein stability index
Reply with just the number.

Looking for the measured protein stability index of FVAKEIADDSKK [TIM12 C-terminal 12 aa] , can you help?
0.684

What does the data say about its protein stability index? Entry: DMGKNLLQNKKF [ERG2 C-terminal 12 aa]
0.695

What value of protein stability index has been recorded for this entry: YERERKLRGGKK [NOP14 C-terminal 12 aa]
0.702

What value of measured protein stability index is listed for KLSNWLFGWNDL [ASM4 C-terminal 12 aa] ?
0.753

Look up protein stability index for this sequence: YVVKGWCDSRFL [GIS3 C-terminal 12 aa]
0.72

Query: protein stability index; subject: PEDCKDDKYFVN [LCB2 C-terminal 12 aa]
0.683

What protein stability index value was documented for this sequence, EAETPGIIDKHQ [SIS2 C-terminal 12 aa] ?
0.689

For CTSCGYKFRTNN [RPA12 C-terminal 12 aa] , what is its reported protein stability index?
0.74

Report protein stability index for TFPLVMMKTTYY [YFR009W-A C-terminal 12 aa] please.
0.72

Param item = YEYHTEEDVMYA [YGR130C C-terminal 12 aa] ; retrieve measured protein stability index.
0.703

Record request: protein stability index value, item EKRLQKEIKSIE [IDP1 C-terminal 12 aa]
0.734

Please look up its protein stability index: LMNAQSNETKLN [PTC6 C-terminal 12 aa]
0.711

State the recorded protein stability index for this entry: TSNSPSPDLMEK [SMA2 C-terminal 12 aa]
0.702

Item PILCTSEDFMGW [RGP1 C-terminal 12 aa] has what recorded protein stability index?
0.709

What protein stability index value was documented for this sequence, YEIEPDFDRLAV [SVP26 C-terminal 12 aa] ?
0.691

Given the sequence SLEKLEMSKYGL [YKL033W-A C-terminal 12 aa] , what is its reported protein stability index?
0.7

State the recorded protein stability index for this entry: MDETIAPLVGCL [YEL008W C-terminal 12 aa]
0.724

Name the reported protein stability index value associated with the sequence LFTAMRTVLFGK [CBP6 C-terminal 12 aa]
0.704

Please look up its protein stability index: FSDFLDSNRITQ [LDB19 C-terminal 12 aa]
0.728

Give the measured protein stability index of ATTDQEGDIHLE [PRE10 C-terminal 12 aa] .
0.689

----------
Test system: Saccharomyces cerevisiae
PROCEDURE TEXT: protein stability index of tFT-peptide fusion (C-terminal peptide) (PSI (0-1 scale)); higher = more stable (slower turnover)
MEASUREMENT CONDITIONS: genetic background: wild type; temperature: 30 C
This listing pairs sequences with measured protein stability index.
Just the number, please, no unit after it.

SEQUENCE TEXT | RESULT
PSRRPPLPLPRP | 0.714
IQYGSSVRREGR | 0.72
GFSRLTPDQRQK | 0.737

Recorded protein stability index of "HVALPAFKQLSG" , please.
0.746

# protein stability index lookup, item "GGGLVGVEGGWG"
0.673

Param item = "SVHPVNRDPSRH" ; retrieve measured protein stability index.
0.69

What does the data say about its protein stability index? Entry: "GAGVCEQGLALA"
0.649

What value of protein stability index has been reported for the following sequence? "FLHPSPIPPPLP"
0.709

# protein stability index lookup, item "SRPRPPHTLLRP"
0.688

Reported protein stability index for "STFGVMVTHEMN" : what is it?
0.727

Item "SYLMVATRFGEN" has what recorded protein stability index?
0.741

Param item = "LTFFRSSPPRPY" ; retrieve measured protein stability index.
0.739

What value of measured protein stability index is listed for "STRERPDRHAVS" ?
0.676

Would you mind telling me what protein stability index value was observed for "KIRINKKVKNKK" ?
0.671

Fill in: protein stability index of "GVLKQGSLPCRD" is ___
0.706

Request the reported protein stability index associated with "AGGSGGGRDRLV"
0.694

Recorded protein stability index of "CLSYSVCPFWEA" , please.
0.807

Suppose we examine the sequence "GGSGVHRHRPFG" ; what protein stability index value has been reported?
0.666

Request the reported protein stability index associated with "HIFQRMCKDMQL"
0.63

May I ask what protein stability index has been recorded for "LSEDGGHRWHRI" ?
0.796

Given the sequence "VVLSASAALFTF" , what is its reported protein stability index?
0.578

Value lookup for protein stability index; key = "RAKRADPSGPPR"
0.724

protein stability index for "LCLRPVISLPHL" ?
0.716
